- Test system: DU145 (human prostate cancer cells)
- ASSAY NAME: MTT cancer cell growth inhibition
- Assay type: cell-based
- APPLIED CONDITIONS: DU145 cells, MTT, 72 hours incubation; read-out: GI50 Du1
- Source text: MTT assay principle is yellow MTT can penetrate membrane into the cell, succinic dehydrogenase of the mitochondria in living cells can make exogenous MTT reduction of insoluble in water of blue-violet acicular formazan for crystallization and deposition in the cell, crystallization can be dissolved dimethyl sulfoxide (DMSO) solution, detected its absorbance at 490 nm/570 nm wavelength by enzyme-linked immunosorbent assay, which can reflect the number of cells. […] e) 570 nm readings. […]
METRIC NAME: GI50 (nM)

1) C/C=C1\NC(=O)c2cc(SC)cc(n2)CNC(=O)C[C@@H](/C=C/CCSC(C)=O)OC(=O)[C@H](C(C)C)NC1=O    50
2) C/C=C1\NC(=O)c2ccc(SC)c(n2)CNC(=O)C[C@@H](/C=C/CCSC(C)=O)OC(=O)[C@H](C(C)C)NC1=O    70
3) C/C=C1\NC(=O)c2cc(SC)cc(n2)CNC(=O)C[C@@H](/C=C/CCSC(C)=O)OC(=O)[C@H](C)NC1=O    40
4) C/C=C1\NC(=O)c2nc(ccc2SC)CNC(=O)C[C@@H](/C=C/CCSC(C)=O)OC(=O)[C@H](C)NC1=O    20

* * *

Quick reference for GI50 among some compounds
- Test system: KBM-5 (human chronic myelogenous leukemia)
- ASSAY NAME: MTT cancer cell growth inhibition
- Format: cell-based
- APPLIED CONDITIONS: Homo sapiens, KBM5, 72 h, MTT, 72 hours incubation, KBM-5 cells; read-out: GI50 KBM-5
METRIC NAME: GI50 (nM)

1. C/C=C1\NC(=O)c2cc(F)cc(n2)CNC(=O)C[C@@H](/C=C/CCSC(=O)CCCCCCC)OC(=O)[C@H](Cc2ccccc2)NC1=O    93
2. C/C=C1\NC(=O)c2ccc(SCC)c(n2)CNC(=O)C[C@@H](/C=C/CCSC(=O)CCCCCC)OC(=O)[C@H](C(C)C)NC1=O    72
3. C=C1NC(=O)c2cccc(n2)CNC(=O)C[C@@H](/C=C/CCSC(=O)CCCCCCC)OC(=O)[C@H](C(C)C)NC1=O    23
4. C/C=C1\NC(=O)c2nc(ccc2SC)CNC(=O)C[C@@H](/C=C/CCSC(=O)CCC)OC(=O)[C@H](C(C)C)NC1=O    35
5. C/C=C1\NC(=O)c2cc(F)cc(n2)CNC(=O)C[C@@H](/C=C/CCS)OC(=O)[C@H](C(C)C)NC1=O    72
6. C/C=C1\NC(=O)c2cc(SC)cc(n2)CNC(=O)C[C@@H](/C=C/CCSC(=O)CCCCC)OC(=O)[C@H](C(C)C)NC1=O    29

* * *

Quick reference for GI50 among some molecules
- Test system: N-87 (human gastric cancer cells)
- ASSAY NAME: MTT cancer cell growth inhibition
- Assay type: cell-based
- APPLIED CONDITIONS: Homo sapiens, 72 h, MTT, 72 hours incubation, N-87 cells; read-out: GI50 N-87
METRIC NAME: GI50 (nM)

1) C/C=C1\NC(=O)c2cc(SC)cc(n2)CNC(=O)C[C@@H](/C=C/CCSC(=O)CCCCCCC)OC(=O)[C@H](C(C)C)NC1=O    47
2) C/C=C1\NC(=O)c2ccc(SC)c(n2)CNC(=O)C[C@@H](/C=C/CCSC(C)=O)OC(=O)[C@H](C(C)C)NC1=O    42
3) C/C=C1\NC(=O)c2cc(F)cc(n2)CNC(=O)C[C@@H](/C=C/CCSC=O)OC(=O)[C@H](C(C)C)NC1=O    53
4) C/C=C1\NC(=O)c2nc(ccc2SC)CNC(=O)C[C@@H](/C=C/CCSC(C)=O)OC(=O)[C@H](Cc2ccccc2)NC1=O    28
5) C/C=C1\NC(=O)c2cccc(n2)CNC(=O)C[C@@H](/C=C/CCSC(C)=O)OC(=O)[C@H](CCCCNC(=O)OCC2c3ccccc3-c3ccccc32)NC1=O    27
6) C/C=C1\NC(=O)c2nc(ccc2F)CNC(=O)C[C@@H](/C=C/CCSC(C)=O)OC(=O)[C@H](Cc2cccc3ccccc23)NC1=O    61
7) C=C1NC(=O)c2cc(SC)cc(n2)CNC(=O)C[C@@H](/C=C/CCSC(C)=O)OC(=O)[C@H](C)NC1=O    31
8) C/C=C1\NC(=O)c2ccc(SC)c(n2)CNC(=O)C[C@@H](/C=C/CCSC(=O)CCCCCCC)OC(=O)[C@H](C(C)C)NC1=O    39
9) C/C=C1\NC(=O)c2nc(ccc2F)CNC(=O)C[C@@H](/C=C/CCS)OC(=O)[C@H](CC)NC1=O    61
10) C/C=C1\NC(=O)c2cc(F)cc(n2)CNC(=O)C[C@@H](/C=C/CCSC(=O)CCCCCCC)OC(=O)[C@H](Cc2ccccc2)NC1=O    53
11) C/C=C1\NC(=O)c2cc(F)cc(n2)CNC(=O)C[C@@H](/C=C/CCSC(=O)CCCCCC)OC(=O)[C@H](C(C)C)NC1=O    67
12) C/C=C1\NC(=O)c2nc(ccc2SC)CNC(=O)C[C@@H](/C=C/CCSC(=O)CCCC)OC(=O)[C@H](C(C)C)NC1=O    65
13) C/C=C1\NC(=O)c2cccc(n2)CNC(=O)C[C@@H](/C=C/CCS)OC(=O)[C@H](CC)NC1=O    42
